Reference for the values: patent US10202593B2

# Km per entry
- Test system: LPETG (Abz-LPETGK(Dnp)-CONH2)
- assay.comment: In vitro sortase kinetics HPLC assay, LPETG substrate
- Type: biochemical
- conditions.used: Example 5 variants; substrate wt (LPETG); read-out: Avg KM
// return numeric value only (unit: mM, not printed)

molecule | Km / mM
eSrtA(4S-3.5) (protein) QAKPQIPKDKSKVAGYIEIPDADIKEPVYPGPATREQLNRGVSFTEENESLDDQNISITGHTFIDRPNYQFTNLKAAKKGSMVYFKVGNETRKYKMTSIRNVKPTAVEVLDEQKGKDKQLTLVTCDDYNEETGVWETRKIFVATEVK | 39.3

Switching to the query record.
Query string: Retrieve Km measured for eSrtA(2A-4): 5mut + A104H K162R V168I I182V (protein) QAKPQIPKDKSKVAGYIEIPDADIKEPVYPGPATREQLNRGVSFHEENESLDDQNISIAGHTFIDRPNYQFTNLKAAKKGSMVYFKVGNETRKYKMTSIRNVRPTAVEILDEQKGKDKQLTLVTCDDYNEETGVWETRKIFVATEVK and print it.
Result string: 5.18
